Settings: in methanol, 328.2 K

# compound_string, solubility (mole fraction)
rows = [
    ("O=c1cc(-c2ccccc2)oc2cc(O)cc(O)c12", 0.000711),
]

* * *

Conditions: in DMF, 313.2 K
quantity: solubility (mole fraction)

# compound_string, quantity, obs_value
rows = [
    ("O=c1cc(-c2ccccc2)oc2cc(O)cc(O)c12", "solubility (mole fraction)", 0.0264),
]

* * *

Conditions: in n-butanol, 308.2 K

# compound_string, solubility (mole fraction)
records = [
    ("O=c1cc(-c2ccccc2)oc2cc(O)cc(O)c12", 0.000981),
]
